- tested-target: human plasma kallikrein (Homo sapiens, UniProt P03952)
- Sequence (P03952 391-638 limits assumed): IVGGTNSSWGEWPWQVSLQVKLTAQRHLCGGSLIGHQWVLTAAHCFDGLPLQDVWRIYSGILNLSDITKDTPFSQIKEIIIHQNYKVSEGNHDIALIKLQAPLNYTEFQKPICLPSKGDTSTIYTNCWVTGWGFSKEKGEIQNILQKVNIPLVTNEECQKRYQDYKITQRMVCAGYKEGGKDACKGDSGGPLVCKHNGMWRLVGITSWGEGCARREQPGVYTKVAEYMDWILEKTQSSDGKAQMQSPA
- Sequence (P03952 20-390 partner limits assumed): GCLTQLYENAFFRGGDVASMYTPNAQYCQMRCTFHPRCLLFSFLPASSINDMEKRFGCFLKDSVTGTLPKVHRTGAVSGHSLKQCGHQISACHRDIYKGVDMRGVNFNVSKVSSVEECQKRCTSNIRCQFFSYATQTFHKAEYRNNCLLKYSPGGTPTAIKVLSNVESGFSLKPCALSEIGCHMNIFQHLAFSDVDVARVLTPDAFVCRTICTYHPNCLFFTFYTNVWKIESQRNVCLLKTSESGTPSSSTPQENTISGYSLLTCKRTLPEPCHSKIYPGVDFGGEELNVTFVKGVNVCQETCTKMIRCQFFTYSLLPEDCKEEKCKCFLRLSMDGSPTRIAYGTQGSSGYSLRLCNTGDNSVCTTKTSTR
- protocol-text: Kallikrein inhibition FLINT assay with quenched AMC peptide substrate Z-Gly-Pro-Arg-AMC (end point EP or kinetic KIN reads)
- Format: biochemical
- test-parameters: kinetic reads at 5 min intervals over 30 min; read-out: Kallikrein (KIN) IC50
Measured log10(IC50), listed per entry.
quantity-name: log10(IC50) (log10 of the value in nM)

compound: O=C(NC1CC1)c1ccc(-c2cnn(C(CC3CCCCO3)c3ccc(-c4c(-n5cnnn5)ccc(Cl)c4F)c[n+]3[O-])c2)cc1 (single isomer, unassigned) [Example P143]
tested-target: human plasma kallikrein (Homo sapiens, UniProt P03952)
quantity-name: log10(IC50)
reading: 1.76
--
compound: [O-][n+]1cc(-c2c(-n3cnnn3)ccc(Cl)c2F)ccc1C(CC1CC1)n1cc(-c2ccncc2)cn1 (stereo not drawn) [Example P187]
tested-target: human plasma kallikrein (Homo sapiens, UniProt P03952)
quantity-name: log10(IC50)
reading: 2.09
--
compound: NC(=O)c1ccc(-c2cnn(C(CC3CC3)c3ccc(-c4c(-n5cc(C(F)(F)F)nn5)ccc(Cl)c4F)c[n+]3[O-])c2)cc1F (single isomer, unassigned)
tested-target: human plasma kallikrein (Homo sapiens, UniProt P03952)
quantity-name: log10(IC50)
reading: 1.89
--
compound: [O-][n+]1cc(-c2c(-n3cnnn3)ccc(Cl)c2F)ccc1C(CC1CC1)n1cc(-c2scnc2C2CC2)cn1 (stereo not drawn)
tested-target: human plasma kallikrein (Homo sapiens, UniProt P03952)
quantity-name: log10(IC50)
reading: 2.34
--
compound: NC(=O)c1scc(-c2cnn(C(CC3CC3)c3ccc(-c4c(-n5cnnn5)ccc(Cl)c4F)c[n+]3[O-])c2)c1F (single isomer, unassigned) [Example P954]
tested-target: human plasma kallikrein (Homo sapiens, UniProt P03952)
quantity-name: log10(IC50)
reading: 2.90
--
compound: NC(=O)c1ccc(-c2cnn(C(Cc3ccn(C(F)F)n3)c3ccc(-c4c(C(F)F)ccc(Cl)c4F)c[n+]3[O-])c2)cc1 (single isomer, unassigned) [Example Q69]
tested-target: human plasma kallikrein (Homo sapiens, UniProt P03952)
quantity-name: log10(IC50)
reading: -0.10
--
compound: O=C(C1CC1CC(c1ccc(-c2c(-n3cnnn3)ccc(Cl)c2F)c[n+]1[O-])n1cc(-c2ccncc2)cn1)N1CCC(C2CC2)C1 (stereo not drawn)
tested-target: human plasma kallikrein (Homo sapiens, UniProt P03952)
quantity-name: log10(IC50)
reading: 2.58
--
compound: COC(=O)Nc1ccc(-c2cnn(C(Cc3ccccc3OC)c3ccc(-c4c(-n5cnnn5)ccc(Cl)c4F)c[n+]3[O-])c2)cc1 (stereo not drawn)
tested-target: human plasma kallikrein (Homo sapiens, UniProt P03952)
quantity-name: log10(IC50)
reading: 1.45
--
compound: O=C(O)c1ccc(-c2cnn(C(CC3CC3C(=O)N3CCC(c4ccccc4)C3)c3ccc(-c4cc(Cl)ccc4-n4cnnn4)c[n+]3[O-])c2)cc1 (single isomer, unassigned) [Example P99]
tested-target: human plasma kallikrein (Homo sapiens, UniProt P03952)
quantity-name: log10(IC50)
reading: 3.37
--
compound: N#Cc1cn(-c2ccc(Cl)c(F)c2-c2ccc([C@@H](CCOC(F)F)n3cc(-c4ncnn4C(F)F)cn3)[n+]([O-])c2)nn1
tested-target: human plasma kallikrein (Homo sapiens, UniProt P03952)
quantity-name: log10(IC50)
reading: 1.55
--
compound: Cn1nncc1-c1cnn([C@H](Cc2ccc(C(F)(F)F)nc2)c2ccc(-c3c(-n4cc(Cl)nn4)ccc(Cl)c3F)c[n+]2[O-])c1
tested-target: human plasma kallikrein (Homo sapiens, UniProt P03952)
quantity-name: log10(IC50)
reading: 1.63
--
compound: COc1cc(C(CC2CC2)n2cc(-c3ccnn3C)cn2)[n+]([O-])cc1-c1c(-n2cnnn2)ccc(Cl)c1F (single isomer, unassigned) [Example P491]
tested-target: human plasma kallikrein (Homo sapiens, UniProt P03952)
quantity-name: log10(IC50)
reading: 0.32
